Measured pKd by item
target: T1, ubiquitin mutein 200053; assay: SPR (Biacore 3000), ligand immobilised via C-terminal Cys on CM-5, ubiquitin mutein in solution, Langmuir 1:1
T1 construct: also called Affilin-200053
In plain terms, pKd is the concentration in mol/L turned into minus its base-10 logarithm.

| Binder | pKd |
| --- | --- |
| affinity ligand 187028 (designed binder) NAARSDEAQYSAWAEIEALPNLTEMQKDQFIWSLMFDPSVSKEVLGEAQKLNDSQAPK | 8.60 |

Please find the next binder below.
Exam item: Query: pKd; subject: affinity ligand 187029 (designed binder, Artificial mosaic protein of Protein A-like structure) NAAMDDFAQYSAWAEIEALPNLTEMQKDQFIWSLMFDPSVSKEVLGEAQKLNDSQAPK
Marked response: 8.23

Just for reference, patent US20240309056A1 is where these values come from.
